- Measured Target: Recombinant human liver GK1 (GST-GK) (Homo sapiens, UniProt P35557)
- Construct: made in house; host or cells: E. coli
- Assay Comment: In vitro glucokinase activity (G6PDH-coupled NADH assay)
- Format: biochemical
- Particulars: 30° C., 5 mM D-glucose, 10% DMSO
Recorded Endpoint: SC1.5 (concentration of activator that produced a 50% increase in the activity of GK) (µM)

[[record]]
molecule = "CC[C@@H](C)C[C@@H](C(=O)Nc1ccn(C[C@@H](O)CO)n1)N1CC(Oc2ccccc2Cl)=CC1=O [Example 255]"
observed_value = 0.048


A = CC(C)OC1=CC(=O)N([C@@H](CC2CCCC2)C(=O)Nc2ccn(CC(C)(C)O)n2)C1 [Example 15]
B = CC(C)(O)Cn1ccc(NC(=O)C(C[C@H]2C[C@H](C)C2)N2CC(Oc3ccccc3Cl)=CC2=O)n1 (stereo partly shown) [Example 214]
Endpoint returns the identifier whose SC1.5 (concentration of activator that produced a 50% increase in the activity of GK) is numerically larger, either A or B . # respond with the chosen item's label
A

====

- Measured Target: Recombinant human liver GK1 (GST-GK) (Homo sapiens, UniProt P35557)
- Construct: made in house; host or cells: E. coli
- Assay Comment: In vitro glucokinase activity (G6PDH-coupled NADH assay)
- Assay type: biochemical
- Particulars: 30° C., 5 mM D-glucose, 10% DMSO
Recorded Endpoint: SC1.5 (concentration of activator that produced a 50% increase in the activity of GK) (µM)

Solved entries (count: 5):
[[record]]
compound = "COc1cccc(OC2=CC(=O)N(C(CC3CCOCC3)C(=O)Nc3ccn(C[C@@H](O)CO)n3)C2)c1Cl (stereo partly drawn)"
observed_value = 0.053

[[record]]
compound = "CC(C)C[C@@H](C(=O)Nc1ccn(CC(C)(C)O)n1)N1CC(Oc2c(F)cccc2F)=CC1=O"
observed_value = 0.198

[[record]]
compound = "COC(=O)c1ccc(NC(=O)[C@H](CC2CCOCC2)N2CC(Oc3c(F)cccc3F)=CC2=O)nc1"
observed_value = 0.071

[[record]]
compound = "CC(C)C[C@@H](C(=O)Nc1ccn(C)n1)N1CC(Oc2cccc(C(C)(C)O)c2F)=CC1=O"
observed_value = 2.089

[[record]]
compound = "Cc1cccc(OC2=CC(=O)N([C@@H](CC(C)C)C(=O)Nc3ccn(CCO)n3)C2)c1F"
observed_value = 0.249


P = Cc1nc2c(OC3=CC(=O)N([C@@H](CC(C)C)C(=O)Nc4ccn(CC(C)(C)O)n4)C3)cccc2o1
Q = COC1=CC(=O)N([C@@H](CC2CCCCC2)C(=O)Nc2ccn(CC(C)(C)O)n2)C1
Hi! Which is lower in terms of SC1.5 (concentration of activator that produced a 50% increase in the activity of GK), the first one P or the second one Q ? Refer to your chosen item by its label in the answer.
Q
(Q: 4.985 µM, P: 7.56 µM)

====

- Measured Target: Recombinant human liver GK1 (GST-GK) (Homo sapiens, UniProt P35557)
- Construct: made in house; host or cells: E. coli
- Assay Comment: In vitro glucokinase activity (G6PDH-coupled NADH assay)
- Format: biochemical
- Particulars: at 30 μM test compound
Recorded Endpoint: fold act. @ 30 μM (fold)

[[record]]
molecule = "COc1ccc(Cc2nsc(NC(=O)[C@H](CC(C)C)N3CC(Oc4ccccc4Cl)=CC3=O)n2)cc1"
measured_target = "Recombinant human liver GK1 (GST-GK) (Homo sapiens, UniProt P35557)"
units = "fold"
observed_value = 1.3

[[record]]
molecule = "CC(C)C[C@@H](C(=O)Nc1nc(CCC(F)(F)F)ns1)N1CC(Oc2ccccc2Cl)=CC1=O"
measured_target = "Recombinant human liver GK1 (GST-GK) (Homo sapiens, UniProt P35557)"
units = "fold"
observed_value = 1.5

[[record]]
molecule = "O=C(Nc1ccn(C[C@@H](O)CO)n1)C(CC(F)(F)F)N1CC(Oc2ccccc2Cl)=CC1=O (stereo partly shown)"
measured_target = "Recombinant human liver GK1 (GST-GK) (Homo sapiens, UniProt P35557)"
units = "fold"
observed_value = 1.4

[[record]]
molecule = "CC(C)C[C@@H](C(=O)Nc1nc(C2CC2)ns1)N1CC(Oc2ccccc2Cl)=CC1=O"
measured_target = "Recombinant human liver GK1 (GST-GK) (Homo sapiens, UniProt P35557)"
units = "fold"
observed_value = 1.4


====

- Measured Target: Recombinant human liver GK1 (GST-GK) (Homo sapiens)
- Construct: made in house; host or cells: E. coli
- Sequence (P35557 1-466 isoform P35557-2): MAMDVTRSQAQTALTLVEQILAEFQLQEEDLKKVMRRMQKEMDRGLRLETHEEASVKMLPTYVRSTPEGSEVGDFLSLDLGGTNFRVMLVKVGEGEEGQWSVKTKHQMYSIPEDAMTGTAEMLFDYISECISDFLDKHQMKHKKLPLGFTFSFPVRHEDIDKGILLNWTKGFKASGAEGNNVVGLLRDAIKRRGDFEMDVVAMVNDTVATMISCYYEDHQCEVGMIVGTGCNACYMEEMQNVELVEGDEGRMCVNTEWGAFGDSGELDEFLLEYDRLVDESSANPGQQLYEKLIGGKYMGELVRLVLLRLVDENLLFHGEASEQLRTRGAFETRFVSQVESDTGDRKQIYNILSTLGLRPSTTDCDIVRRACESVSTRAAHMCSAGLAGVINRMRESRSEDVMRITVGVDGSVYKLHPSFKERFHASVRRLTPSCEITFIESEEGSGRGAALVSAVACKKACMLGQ
- Assay Comment: In vitro glucokinase activity (G6PDH-coupled NADH assay)
- Assay type: biochemical
- Particulars: 30° C., 5 mM D-glucose, 10% DMSO
Recorded Endpoint: SC1.5 (concentration of activator that produced a 50% increase in the activity of GK) (µM)

Use the examples below as a reference point.
[[record]]
compound = "O=C(O)c1ccc(NC(=O)[C@H](CC2CCCCC2)N2CC(Oc3c(F)ccc(Cl)c3F)=CC2=O)nc1"
measured_target = "Recombinant human liver GK1 (GST-GK) (Homo sapiens)"
observed_value = 0.055

[[record]]
compound = "CC(C)(O)Cn1ccc(NC(=O)[C@H](CC2CCCCC2)N2CC(Oc3cccc(C(F)(F)F)c3)=CC2=O)n1"
measured_target = "Recombinant human liver GK1 (GST-GK) (Homo sapiens)"
observed_value = 0.076


I = COc1ccc(F)c(OC2=CC(=O)N([C@@H](CC(C)C)C(=O)Nc3ccn(C[C@@H](O)CO)n3)C2)c1F
II = COC[C@H](C)OC1=CC(=O)N([C@@H](CC2CCCC2)C(=O)Nc2ccn(CC(C)(C)O)n2)C1
III = COC(=O)c1ccc(NC(=O)C(CC2CCOCC2)N2CC(Oc3c(F)cccc3F)=CC2=O)nc1 (centres unmarked)
IV = CC(C)(O)Cn1ccc(NC(=O)[C@H](CC2CCCCC2)N2CC(Oc3ccccc3C(F)(F)F)=CC2=O)n1
V = COc1cccc(OC2=CC(=O)N([C@@H](CC3CCCCC3)C(=O)Nc3ccn(C[C@@H](O)CO)n3)C2)c1
Kindly order the items shown according to SC1.5 (concentration of activator that produced a 50% increase in the activity of GK), from the highest value down. Lab note: record answer as labels in requested order.
II, III, I, IV, V

====

- Measured Target: Recombinant human liver GK1 (GST-GK) (Homo sapiens)
- Construct: made in house; host or cells: E. coli
- Sequence (P35557 1-466 isoform P35557-2): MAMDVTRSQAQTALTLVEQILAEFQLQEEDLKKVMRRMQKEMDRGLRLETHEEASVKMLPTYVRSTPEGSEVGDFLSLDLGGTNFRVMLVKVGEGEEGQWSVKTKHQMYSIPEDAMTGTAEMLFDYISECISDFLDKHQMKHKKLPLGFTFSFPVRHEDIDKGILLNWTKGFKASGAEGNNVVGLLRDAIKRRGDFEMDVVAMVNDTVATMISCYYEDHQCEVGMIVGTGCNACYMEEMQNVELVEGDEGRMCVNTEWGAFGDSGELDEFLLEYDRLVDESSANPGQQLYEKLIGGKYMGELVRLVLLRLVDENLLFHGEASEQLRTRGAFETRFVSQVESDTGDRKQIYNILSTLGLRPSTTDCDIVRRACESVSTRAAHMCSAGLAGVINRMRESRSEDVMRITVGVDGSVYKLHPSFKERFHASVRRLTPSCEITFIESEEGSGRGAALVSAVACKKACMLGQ
- Assay Comment: In vitro glucokinase activity (G6PDH-coupled NADH assay)
- Format: biochemical
- Particulars: 30° C., 5 mM D-glucose, 10% DMSO
- Description: Glucokinase In Vitro Assay Protocol: Glucokinase (GK) was assayed by coupling the production of glucose-6-phosphate to the generation of NADH with glucose-6-phosphate dehydrogenase (G6PDH, 0.75-1 kunits/mg; Boehringer Mannheim, Indianapolis, Ind.) from Leuconostoc mesenteroides as the coupling enzyme (Scheme 2). […] After addition of enzyme, the increase in optical density (OD) at 340 nm was monitored spectrophotometrically to determine the rate of change (OD340 per min). […]
Recorded Endpoint: SC1.5 (concentration of activator that produced a 50% increase in the activity of GK) (µM)

Worked cases, SC1.5 (concentration of activator that produced a 50% increase in the activity of GK) given:
[[record]]
compound = "CC(C)(O)Cn1ccc(NC(=O)[C@H](CC2CCCCC2)N2CC(Oc3cc(Cl)ccc3Cl)=CC2=O)n1"
observed_value = 0.013

[[record]]
compound = "CC(C)C[C@@H](C(=O)Nc1ccn(CC(C)(C)O)n1)N1CC(Oc2ccccc2F)=CC1=O"
observed_value = 0.206

[[record]]
compound = "CCOc1ccc(F)c(OC2=CC(=O)N([C@@H](CC3CCOCC3)C(=O)Nc3ccn(CC(C)(C)O)n3)C2)c1F (single isomer, unassigned)"
observed_value = 0.006

[[record]]
compound = "Cc1ccccc1OC1=CC(=O)N([C@@H](CC(C)C)C(=O)Nc2ccn(C[C@@H]3COC(C)(C)O3)n2)C1"
observed_value = 1.294

[[record]]
compound = "CC(C)C[C@@H](C(=O)Nc1ccn(C[C@@H](O)CO)n1)N1CC(Oc2cccc(N(C)C)c2F)=CC1=O.Cl"
observed_value = 0.37

[[record]]
compound = "Cl.Cn1ccc(NC(=O)[C@H](CC2CCCCC2)N2CC(Oc3ccccc3C(F)(F)F)=CC2=O)n1"
observed_value = 0.088

[[record]]
compound = "Cc1ccccc1OC1=CC(=O)N([C@@H](CC(C)C)C(=O)Nc2ccn(CCO)n2)C1"
observed_value = 0.56

[[record]]
compound = "CC(C)(O)Cn1ccc(NC(=O)C(CC2CCOCC2)N2CC(Oc3ccccc3Br)=CC2=O)n1 (stereo not shown)"
observed_value = 0.073

[[record]]
compound = "CC[C@H](C)CC(C(=O)Nc1ccn(C[C@@H]2COC(C)(C)O2)n1)N1CC(Oc2ccccc2Cl)=CC1=O (mixture of isomers)"
observed_value = 0.304

[[record]]
compound = "CC(C)NC1=CC(=O)N([C@@H](CC2CCCCC2)C(=O)Nc2ccn(CC(C)(C)O)n2)C1"
observed_value = 12.232


1 = Cc1cccc(OC2=CC(=O)N([C@@H](CC3CCCCC3)C(=O)Nc3ccn(CC(C)(C)O)n3)C2)c1C
2 = CC1(C)OC[C@@H](Cn2ccc(NC(=O)[C@H](CC3CCCC3)N3CC(Oc4c(F)cccc4F)=CC3=O)n2)O1
# returns the entry with the larger SC1.5 (concentration of activator that produced a 50% increase in the activity of GK); inputs 1 and 2 # respond with the chosen item's label
2
(2: 0.093 µM, 1: 0.012 µM)
